Task for the reader: assign each of the following compounds its reported pEC50.
target: 5-hydroxytryptamine receptor 1A (Homo sapiens); experiment: In vitro effective concentration required to inhibit forskolin-stimulated cAMP levels in HA7 cells expressing human 5-HT1A receptor
Sequence (P08908 whole entry): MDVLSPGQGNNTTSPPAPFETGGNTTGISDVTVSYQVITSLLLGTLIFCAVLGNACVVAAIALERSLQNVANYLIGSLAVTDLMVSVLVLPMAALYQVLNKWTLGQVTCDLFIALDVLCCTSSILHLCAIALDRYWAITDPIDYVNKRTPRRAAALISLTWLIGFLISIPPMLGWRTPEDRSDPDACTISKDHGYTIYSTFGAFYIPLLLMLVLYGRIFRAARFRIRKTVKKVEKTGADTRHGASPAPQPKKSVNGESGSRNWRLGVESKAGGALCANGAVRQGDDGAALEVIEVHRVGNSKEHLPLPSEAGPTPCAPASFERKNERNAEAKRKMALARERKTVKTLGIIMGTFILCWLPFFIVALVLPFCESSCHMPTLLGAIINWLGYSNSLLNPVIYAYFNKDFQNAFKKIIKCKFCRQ
pEC50 (log units): -log10 of the concentration in mol/L.

Please list pEC50 recorded for the compound `O=C(c1ccc(Cl)c(Cl)c1)N1CCC(F)(CNCc2cccc(N3CCC3)n2)CC1`
7.97

Please supply the value of reported pEC50 for the item `CCNc1nc(CNCC2(F)CCN(C(=O)c3ccc(F)c(Cl)c3)CC2)ccc1C`
8.08

Give the reported pEC50 for this compound. `O=C(c1ccc(Cl)c(Cl)c1)N1CCC(F)(CNCc2cccc(-c3cc[nH]n3)n2)CC1`
8.95

Kindly indicate its recorded pEC50. Item: `O=C(c1ccc(Cl)c(Cl)c1)N1CCC(CNCc2cccc(-c3cc[nH]n3)n2)CC1`
8.52

Answer with the recorded pEC50 for the compound listed here: `O=C(c1ccc(Cl)c(Cl)c1)N1CCC(F)(CNCc2cccc(-c3nccs3)n2)CC1`
7.64

For `O=C(c1ccc(Cl)c(Cl)c1)N1CCC(CNCc2cccc(-c3nccs3)n2)CC1` , write its pEC50.
8.30

In one line, give reported pEC50 of the entry `CN(C)c1cccc(CNCC2(F)CCN(C(=O)c3cccc(Cl)c3)CC2)n1` .
8.00

Data origin: ChEMBL document CHEMBL1132173
